Test system: E-tag antibody
Test: ELISA analysis of phage on antibody raised against ETAG (positive control)
Conditions: peptide binding to E-tag antibody; phage ELISA units read at 405 nm
Reported ETAG (OD) is given for each of the following substances.
Give the value, in units of OD, as a plain number.

These solved cases illustrate the format of a correct answer.
substance="VSGVPDGSMRAAQLASGYWC (DGI-2-20F-PP-G2; listed as Escherichia coli)" target_of_assay="E-tag antibody" property_measured="ETAG (OD)" number=5.6
substance="LFSATGCALMSGFCLGSDGS (DGI-2-20R-3-C1; listed as Escherichia coli)" target_of_assay="E-tag antibody" property_measured="ETAG (OD)" number=14.0
substance="SRPGWCSRGTAWGFPGCSSS (DGI-2-20R-3-C4; listed as Escherichia coli)" target_of_assay="E-tag antibody" property_measured="ETAG (OD)" number=19.1
substance="SIILAGCVWVMPCGQNLGGV (DGI-2-20F-PP-C4; listed as Escherichia coli)" target_of_assay="E-tag antibody" property_measured="ETAG (OD)" number=36.1
substance="LSRIWRGVIESAREVESRGI (DGI-2-20F-3-B1; listed as Escherichia coli)" target_of_assay="E-tag antibody" property_measured="ETAG (OD)" number=11.4

Query string: What value of measured ETAG (OD) is listed for CAYRWGLFRGPGRVDYDLQVVGIMMWPGPIPDRSSRGSVA (DGI-2-40F-3-A7; listed as Escherichia coli) ?
Result string: 8.7

Query string: What value of measured ETAG (OD) is listed for VLQRSLWKDWVDGVMHGGGSRGV (DGI-2-20R-3-A7; listed as Escherichia coli) ?
Result string: 13.9

Query string: What value of measured ETAG (OD) is listed for TIDVARRFGYGWWDLWLDGD (DGI-2-20R-3-C3; listed as Escherichia coli) ?
Result string: 20.2

Query string: What value of measured ETAG (OD) is listed for LGRIVRPCVVRLCGGV##GV (LGRIVRPCVVRLCGGVGV; DGI-2-20F-PP-G10; listed as Escherichia coli) ?
Result string: 30.1

Query string: What value of measured ETAG (OD) is listed for GQISLAGVAVCSSERMLLAFSSRVFLPGLKVPVTTSQRGS (DGI-2-40F-3-A8; listed as Escherichia coli) ?
Result string: 1.5

Query string: What value of measured ETAG (OD) is listed for RRILPWSFPGCGRMC (DGI-2-20R-3-A10; listed as Escherichia coli) [DGJ-2-20R-3-A10] ?
Result string: 16.4

Query string: What value of measured ETAG (OD) is listed for VRAVYSRDAYNEVGRWMRVGI (DGI-2-20F-PP-D9; listed as Escherichia coli) ?
Result string: 9.0

---

Target: DGI-2 (Homo sapiens, UniProt Q15004)
Construct: encompassed the entire DGI-2 open reading frame (ORF); His-tag of vector pIVEX2.3-MCS (inferred from the vector and from the reverse primer lacking a stop codon); made in house; host or cells: cell-free in vitro translation (Rapid Translation System RTS, Roche; E. coli lysate)
Sequence (Q15004 1-111): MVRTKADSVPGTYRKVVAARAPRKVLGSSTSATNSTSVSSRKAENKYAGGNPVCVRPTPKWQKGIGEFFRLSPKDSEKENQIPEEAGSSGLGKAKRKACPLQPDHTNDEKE
Assay: ELISA analysis of phage on DGI-2 polypeptide (specific binding)
Details: ratio of specific binding to non-specific binding
property.measured: DGI-2/LDH (OD)
Answer as a number with no unit attached.

residues="CAYRWGLFRGPGRVDYDLQVVGIMMWPGPIPDRSSRGSVA (DGI-2-40F-3-A7; listed as Escherichia coli)" number=1.1
residues="GLYRRAGDASVGFSRWGREDCQVYFSVECLLGSSWGGYS (GLYRRAGDASVGFSRWGRFDCQVYFSVECLLGSSWGGYS; DGI-2-40F-4-F12; listed as Escherichia coli)" number=2.5

From here, focus on the item given below.
Query string: What value of measured DGI-2/LDH (OD) is listed for RISVGQCGTSRCGGGRRGGG (DGI-2-20F-PP-D1; listed as Escherichia coli) ?
Result string: 1.9
